test: gradient 5% acetonitrile 3 min, to 50% in 2 min, to 85% in 15 min, held 3 min, 100 µL/min; settings: column: Zorbax Extend-C18 2.1 x 50 mm; eluents: water / acetonitrile, 0.1% formic acid
Reported metric: RP-LC retention time (s)

Solved cases below.
Cc1noc([C@@H]2CN(C(=O)c3occc3C)C[C@H]2COCC2CC2)n1; 794
O=C(Nc1ccccc1)C(=O)c1cn(CC(=O)N2CCOCC2)c2ccccc12; 860

[a] CCOc1ccc(NC(=O)N2CCC3(CC2)NC(=O)c2ccccc2O3)cc1
[b] O=c1ccc(-c2ccccc2)nn1Cc1nc(-c2ccc(Cl)cc2)no1
Task item: Lab note: check whether a or b has the lower measured RP-LC retention time. Bench note: the answer is the label of the chosen record.
Reply: a
(a: 739 s, b: 1080 s)
